All values here come from the supplement of paper PMC11417369.

Tested on: PfHDP1 homeodomain (GST-tagged)
assayMethodText: gcPBM binding intensity (ln(normalized median fluorescence intensity)); higher = stronger DNA binding
Over roughly 25,000 sequences, “ln(normalized median fluorescence intensity)” has its median near 6.7; the highest 2% begin near 10. The list comes from a sample in which the highest values are over-represented; it also holds close analogues and randomly drawn sequences.
Each entry below carries its reported gcPBM binding intensity (ln).
# print the numeric value only

orderedResidues: AAATATAAAGTGCACACACACAAAAAAAGAAAAAAA [CACACA_site6452]
gcPBM binding intensity (ln): 8.92
//
orderedResidues: TATAAAAATAATATTACACACATGTAAAATGGGGGT [CACACA_site9071]
gcPBM binding intensity (ln): 7.03
//
orderedResidues: TTTATATTTTAAAAAATAATATTATGTATTTTTAAA [TGCATGCA_negctrl_site507]
gcPBM binding intensity (ln): 6.01
//
orderedResidues: AATAATATTTATTTTTGTACATATGTGCATTATAAA [XGTACX_site3682]
gcPBM binding intensity (ln): 11.2
//
orderedResidues: TAATTATTACACGGTATTATATATAATATGTTAAAA [GTGCAC_negctrl_site134]
gcPBM binding intensity (ln): 6.6
//
orderedResidues: AATATACAAAATAAATAAAATATATATATATATATA [CACACA_negctrl_site216]
gcPBM binding intensity (ln): 9.24
//
orderedResidues: CAAAACAAAGTTGCCGCACACAGATACGCACCCAAG [CACACA_site3455]
gcPBM binding intensity (ln): 7.09
//
orderedResidues: AAAAAAAAAAAATGTGTGCACATTATTTCAACTTAA
gcPBM binding intensity (ln): 10

Given the entry TTTATTTATTATTAAAGTACTAAAATATATTATTAT [XGTACX_site4887] , report its measured gcPBM binding intensity (ln).
6.24

Given the entry ATATATAATTTTTACACACGCAATAAATATATATAT [CACACA_site4283] , report its measured gcPBM binding intensity (ln).
7.7

Given the entry AGAGAGATGACAAAAAGATGAATAACGTTAAGGGAT [XGTACX_negctrl_site120] , report its measured gcPBM binding intensity (ln).
7.4

Given the entry AAAATTAGGTATATATGTACATATATAAATATATAT [XGTACX_site3555] , report its measured gcPBM binding intensity (ln).
6.8

Given the entry TTTATTTATTATTAAAGTACTAAATTATATTATTAT [XGTACX_site2565] , report its measured gcPBM binding intensity (ln).
5.95

###

Tested on: PfHDP1 homeodomain (GST-tagged)
assayMethodText: gcPBM binding intensity (ln(normalized median fluorescence intensity)); higher = stronger DNA binding
In all, about 25,000 sequences were measured (“ln(normalized median fluorescence intensity)”: median about 6.7, highest 2% from about 10 on). The full list was thinned out, with the highest values kept by preference.
observationType: gcPBM binding intensity (ln)
# print the numeric value only

Below, each entry is followed by its recorded gcPBM binding intensity (ln) result.
orderedResidues: TTATAATATATATAAAAGAAAAAAAATTATAATATA [CACACA_negctrl_site90]
gcPBM binding intensity (ln): 6.53

orderedResidues: TTAATATGAAATAAATGTACATAATACATAATAAAA [XGTACX_site6194]
gcPBM binding intensity (ln): 6.44

orderedResidues: TATATAATCGAGTGCACACACAAAAAAAAAGTGAAC [CACACA_site1483]
gcPBM binding intensity (ln): 10.4

orderedResidues: AGTAGGCATATTGGTTGTACAAAAAAATTATGCACC [XGTACX_site8925]
gcPBM binding intensity (ln): 10.6

orderedResidues: ATATATATATATGCATGTACATATATTTGTTATATC [XGTACX_site3197]
gcPBM binding intensity (ln): 9.16

orderedResidues: CAGTTAATGTTGGTACTTTATATAAAAATGATATGA [CACACA_negctrl_site1600]
gcPBM binding intensity (ln): 6.67

orderedResidues: AATATATATTTATAAACACACACCAAAATTTGTGCT [CACACA_site3091]
gcPBM binding intensity (ln): 6.82

orderedResidues: TGCTTTTCTTTTTGCACACTTATGCATATATATATA [CACACA_site2583]
gcPBM binding intensity (ln): 10.8

orderedResidues: TGAATATTCATATGCACACAAATTAATATACATAAT [CACACA_site442]
gcPBM binding intensity (ln): 10.3

Could you now look at the following sequence, please?
Given the entry TATTTGTAAATCGATACACACATATATCTTAATATA [CACACA_site4273] , report its measured gcPBM binding intensity (ln).
6.28
